Parameter self-cleavage: see the listing below.
B1: CPEB3 Ribozyme (parent)
chain: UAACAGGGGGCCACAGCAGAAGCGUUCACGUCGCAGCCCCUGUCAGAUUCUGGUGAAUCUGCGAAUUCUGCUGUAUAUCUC

Variants of: B1
Protocol Notes: self-cleavage, relative activity (ratio to wild type); higher = more cleavage; in vitro, sequencing
Respond numerically, and do not add a unit to the figure.

Data point: U31C A64C ; self-cleavage = 0.14
